# credit: paper PMC10384010

Assay: HPLC on IAM (immobilized artificial membrane) column, retention factor
Format: physicochemical
Conditions: IAM.PC.DD.2 column; 10 mM phosphate buffer pH 7.4:acetonitrile 80:20
OBSERVATION TYPE: k(IAM) retention factor

Example entries and their recorded answers appear below.
| COMPOUND | k(IAM) retention factor |
| --- | --- |
| Cc1cncc(CN2CCC(=C3c4ccc(Cl)cc4CCc4cccnc43)CC2)c1 | 9.29 |
| COc1cc(N)c(Cl)cc1C(=O)NC1CCN(CCCOc2ccc(F)cc2)CC1OC (stereo not shown) [cisapride] | 57.99 |
| Cc1ncc2n1-c1ccc(Cl)cc1C(c1ccccc1F)=NC2 | 5.69 |

Now for another entry.
GET /values?readout=k(IAM) retention factor&item= CO/N=C(\C(=O)N[C@@H]1C(=O)N2C(C(=O)O)=C(COC(N)=O)CS[C@H]12)c1ccco1
1.69

====

Test: HPLC on IAM (immobilized artificial membrane) column, retention factor
Type: physicochemical
Conditions: IAM.PC.DD.2 column; 10 mM phosphate buffer pH 7.4:acetonitrile 80:20
OBSERVATION TYPE: k(IAM) retention factor

// known answers, use as guide
| COMPOUND | OBSERVED VALUE |
| --- | --- |
| C[C@]12C=CC(=O)C=C1CC[C@@H]1[C@@H]2[C@@H](O)C[C@@]2(C)[C@H]1CC[C@]2(O)C(=O)CO | 2.84 |
| O=C1Nc2ccc(Cl)cc2C(c2ccccc2Cl)=NC1O (centres unmarked) | 9.04 |
| CNCCC(Oc1ccc(C(F)(F)F)cc1)c1ccccc1 (centres unmarked) | 66.64 |
| Cn1c(=O)c2[nH]cnc2n(C)c1=O | 0.12 |

Next compound, please.
Reported k(IAM) retention factor for Cc1cc2c(s1)Nc1ccccc1N=C2N1CCN(C)CC1 : what is it?
20.31

====

Task for the reader: assign each of the following compounds its reported RP (Rf from RP-2 TLC plate).
Assay: Reversed-phase TLC on RP-2 silanized plates (Rf)
Assay type: physicochemical
Conditions: silica gel 60 RP-2 F254 silanized; water:methanol:acetonitrile 60:20:20, ammonium acetate pH 7.4
One number for each entry.

Recorded results for 5 compounds are shown here.
| COMPOUND | RP (Rf from RP-2 TLC plate) |
| --- | --- |
| CC(=O)Oc1ccccc1C(=O)O | 0.98 |
| CN/C(=N/CCSCc1nc[nH]c1C)NC#N | 0.88 |
| CN1CCC(=C2c3ccccc3CC(=O)c3sccc32)CC1 | 0.75 |
| CC(C)C[C@H]1C(=O)N2CCC[C@H]2[C@]2(O)O[C@](NC(=O)[C@@H]3C=C4c5cccc6[nH]c(Br)c(c56)C[C@H]4N(C)C3)(C(C)C)C(=O)N12 | 0.69 |
| COc1ccnc(C[S+]([O-])c2nc3ccc(OC(F)F)cc3[nH]2)c1OC (centres unmarked) | 0.85 |

Kindly give each listed record's RP (Rf from RP-2 TLC plate).
1. CC(=O)Nc1nnc(S(N)(=O)=O)s1
2. CCCNCC(O)COc1ccccc1C(=O)CCc1ccccc1 (centres unmarked)
3. COc1cc2nc(N3CCN(C(=O)C4COc5ccccc5O4)CC3)nc(N)c2cc1OC (centres unmarked)
4. CN1C(=O)CC(=O)N(c2ccccc2)c2cc(Cl)ccc21
5. CCOC(=O)C1=C(C)NC(C)=C(C(=O)OC)C1c1cccc([N+](=O)[O-])c1 (centres unmarked)
6. CCC(C)n1ncn(-c2ccc(N3CCN(c4ccc(OCC5COC(Cn6cncn6)(c6ccc(Cl)cc6Cl)O5)cc4)CC3)cc2)c1=O (centres unmarked)
7. CO[C@H]1/C=C/O[C@@]2(C)Oc3c(C)c(O)c4c(O)c(c(/C=N/N5CCN(C)CC5)c(O)c4c3C2=O)NC(=O)/C(C)=C\C=C\[C@H](C)[C@H](O)[C@@H](C)[C@@H](O)[C@@H](C)[C@H](OC(C)=O)[C@@H]1C

0.97
0.56
0.75
0.79
0.86
0.86
0.95

Below is a list of compounds. For each, state its recorded RP (Rf from RP-2 TLC plate).
1. CCCCN1CCCCC1C(=O)Nc1c(C)cccc1C (centres unmarked)
2. CN(C)CCc1c[nH]c2ccc(C[C@H]3COC(=O)N3)cc12
3. CCN(CC)CC#CCOC(=O)C(O)(c1ccccc1)C1CCCCC1 (centres unmarked)

[0.74, 0.86, 0.29]

Respectfully, I request RP (Rf from RP-2 TLC plate) for each entry included below.
1. Nc1nnc(-c2cccc(Cl)c2Cl)c(N)n1
2. CCOC(=O)[C@H](CCc1ccccc1)N[C@@H](C)C(=O)N1CCC[C@H]1C(=O)O

1. 0.87
2. 0.6
